Numbers sourced from ChEMBL document CHEMBL5108065.

Reported Vd values follow for various compounds
- assayName: Volume of distribution at steady state in Sprague-Dawley rat blood at 1 mg/kg, iv measured at 2 to 72 hrs by LC-MS/MS analysis
- Format: ADME, organism-based
- particulars: whole blood, time 2-72 hrs, read-out: Vdss
Include the unit right after the number.

C[C@H]1C[C@@H](N2C(=N)N[C@](C)(c3cccc(Nc4ccc(C5CC5)nc4)c3Cl)CC2=O)CCO1 | 11.7 L/kg

Now for a further compound.
Record C[C@H]1C[C@@H](N2C(=N)N[C@](C)(c3cccc(NC(=O)c4cccc(C#N)c4)c3Cl)CC2=O)CCO1 . Reported Vd: 5.72 L/kg
